// provenance: patent US9963445B2

system: Abutilon theophrasti; assay: Pre-emergence herbicidal activity, glasshouse pot test; format: in vivo; conditions: pre-emergence spray, rate 1000 g/ha, evaluated after 13 days, scale 0-5; note: key: 5=total damage to plant; 0=no damage to plant
reported_property: ABUTH damage score, application pre-emergence

>  <molecule>
CSc1ccc(N2C(=O)C(Cl)=C(C)C2OC(C)=O)nc1 (centres unmarked)

>  <reported>
0

$$$$
>  <molecule>
CC(C)(C)C1=C(Cl)C(=O)N(c2cc(C(F)(F)F)ccn2)C1O (centres unmarked)

>  <reported>
0

$$$$
>  <molecule>
CC1=C(Cl)C(=O)N(c2cc(C(C)(F)F)ncn2)C1O (centres unmarked)

>  <reported>
5

$$$$
>  <molecule>
C#CC(C)(C)NC(=O)c1ccc(N2C(=O)C(OC)=C(C)C2O)nn1 (centres unmarked)

>  <reported>
4

$$$$
>  <molecule>
CCOC1=C(C)C(O)N(c2cc(C(F)(F)F)ccn2)C1=O (centres unmarked)

>  <reported>
4

$$$$

---

Below: a set of entries, each annotated with reported ALOMY damage score, application pre-emergence.
tested on: Alopecurus myosuroides; experiment: Pre-emergence herbicidal activity, glasshouse pot test; assay type: in vivo; conditions: pre-emergence spray, rate 1000 g/ha, evaluated after 13 days, scale 0-5
reported_property: ALOMY damage score, application pre-emergence

>  <compound>
COC1=C(C)C(O)N(c2cc(C(C)(C)C)c(Cl)nn2)C1=O (stereo not drawn) [BI1]

>  <reported>
4

$$$$
>  <compound>
CC1=C(Br)C(=O)N(c2ccc(C(F)(F)F)cn2)C1O (stereo not drawn)

>  <reported>
3

$$$$
>  <compound>
COC1=C(C)C(O)N(c2cc(Cl)c(C(=O)NC(C)(C)C)cn2)C1=O (stereo not drawn)

>  <reported>
4

$$$$
>  <compound>
COC1=C(C)C(O)N(c2cc(C(C)(F)F)c(-c3cccnc3)nn2)C1=O (stereo not drawn)

>  <reported>
2

$$$$
>  <compound>
COC1=C(C)C(O)N(c2cc(C(C)(C)C#N)ncn2)C1=O (stereo not drawn)

>  <reported>
3

$$$$
>  <compound>
COC1=C(C)C(O)N(c2cc(C)c(Cl)nn2)C1=O (stereo not drawn)

>  <reported>
3

$$$$
>  <compound>
COC1=C(C)C(O)N(c2ccc(C(=O)NC(C)(C)C)nn2)C1=O (stereo not drawn)

>  <reported>
4

$$$$
>  <compound>
CC1=C(Cl)C(=O)N(c2cc(C(F)(F)F)cc[n+]2[O-])C1O (stereo not drawn)

>  <reported>
0

$$$$
>  <compound>
CCCC1=C(Cl)C(=O)N(c2cc(C(F)(F)F)ccn2)C1O (stereo not drawn)

>  <reported>
3

$$$$
>  <compound>
COC1=C(C)C(O)N(c2cc(C(C)(C)F)ncn2)C1=O (stereo not drawn)

>  <reported>
3

$$$$
>  <compound>
CC(=O)c1ccnc(N2C(=O)C(Cl)=C(C)C2O)c1 (stereo not drawn)

>  <reported>
1

$$$$
>  <compound>
CC1=C(Cl)C(=O)N(c2cc(C(F)(F)F)c(-c3cccc(C#N)c3)cn2)C1O (stereo not drawn)

>  <reported>
0

$$$$
>  <compound>
CC1=C(Cl)C(=O)N(c2cc(C#N)ccn2)C1O (stereo not drawn)

>  <reported>
2

$$$$
>  <compound>
CC1=C(Cl)C(=O)N(c2cc(C(F)(F)F)ncn2)C1O (stereo not drawn)

>  <reported>
3

$$$$
>  <compound>
CC1=C(Br)C(=O)N(c2cc(C(F)(F)F)ncn2)C1O (stereo not drawn)

>  <reported>
3

$$$$
>  <compound>
CC1=C(Cl)C(=O)N(c2ccc(Cl)cn2)C1O (stereo not drawn)

>  <reported>
2

$$$$
>  <compound>
CC1=C(Cl)C(=O)N(c2cc(C(C)(C)C)ccn2)C1O (stereo not drawn)

>  <reported>
4

$$$$
>  <compound>
CCC(CNC(=O)c1cnc(N2C(=O)C(OC)=C(C)C2O)cc1C)C(F)(F)F (stereo not drawn)

>  <reported>
4

$$$$
>  <compound>
CC1=C(Cl)C(=O)N(c2cc(C(F)(F)F)c(C(=O)OC(C)C)cn2)C1O (stereo not drawn)

>  <reported>
4

$$$$
>  <compound>
COC1=C(C)C(O)N(c2cc(C(F)(F)F)c(C(=O)N(C)OC)cn2)C1=O (stereo not drawn)

>  <reported>
4

$$$$
>  <compound>
COC1=C(C)C(O)N(c2cc(C)c(C(=O)NC(C)(C)C)cn2)C1=O (stereo not drawn)

>  <reported>
4

$$$$
